Tested on: MM029
Test: Cell viability assay (PrestoBlue), 72h
Details: Homo sapiens
measure: IC50 (nM)

COc1ccc2[nH]c3c(c2c1)CCN[C@]31CS[C@@H]2c3c(OC(C)=O)c(C)c4c(c3[C@H](COC1=O)N1[C@@H]2[C@H]2c3c(cc(C)c(OC)c3O)C[C@@H]([C@@H]1O)N2C)OCO4 ... 1.28
COc1c(C)cc2c(c1O)[C@@H]1[C@@H]3[C@@H]4SC[C@]5(N[C@H](CO)Cc6c5[nH]c5ccccc65)C(=O)OC[C@@H](c5c6c(c(C)c(OC(C)=O)c54)OCO6)N3[C@@H](O)[C@H](C2)N1C ... 1.4
COc1c(C)cc2c(c1O)[C@@H]1[C@@H]3[C@@H]4SC[C@]5(N[C@H](CO)Cc6c5oc5ccccc65)C(=O)OC[C@@H](c5c6c(c(C)c(OC(C)=O)c54)OCO6)N3[C@@H](O)[C@H](C2)N1C ... 4.73

====

Test system: MM117
Assay: Cell viability assay (PrestoBlue), 72h
Details: Homo sapiens
log10(IC50) by entry:
measure: log10(IC50) (log10 of the value in nM)

COc1ccc2[nH]c3c(c2c1)CCN[C@]31CS[C@@H]2c3c(OC(C)=O)c(C)c4c(c3[C@H](COC1=O)N1[C@@H]2[C@H]2c3c(cc(C)c(OC)c3O)C[C@@H]([C@@H]1O)N2C)OCO4 [lurbinectedin] ... -0.52
COc1c(C)cc2c(c1O)[C@@H]1[C@@H]3[C@@H]4SC[C@]5(N[C@H](CO)Cc6c5[nH]c5ccccc65)C(=O)OC[C@@H](c5c6c(c(C)c(OC(C)=O)c54)OCO6)N3[C@@H](O)[C@H](C2)N1C [PM14, ecubectedin] ... -0.14
CCCS(=O)(=O)Nc1ccc(F)c(C(=O)c2c[nH]c3ncc(-c4ccc(Cl)cc4)cc23)c1F [vemurafenib] ... 2.69
COc1c(C)cc2c(c1O)[C@@H]1[C@@H]3[C@@H]4SC[C@]5(N[C@H](CO)Cc6c5oc5ccccc65)C(=O)OC[C@@H](c5c6c(c(C)c(OC(C)=O)c54)OCO6)N3[C@@H](O)[C@H](C2)N1C [Compound IA] ... 0.06
CC(=O)Nc1cccc(-n2c(=O)n(C3CC3)c(=O)c3c(Nc4ccc(I)cc4F)n(C)c(=O)c(C)c32)c1 [trametinib] ... 1.01

====

Tested on: MM099
Experiment: Cell viability assay (PrestoBlue), 72h
Settings: Homo sapiens
pIC50: −log10 of the molar value.
Each record here notes measured pIC50.
measure: pIC50

COc1ccc2[nH]c3c(c2c1)CCN[C@]31CS[C@@H]2c3c(OC(C)=O)c(C)c4c(c3[C@H](COC1=O)N1[C@@H]2[C@H]2c3c(cc(C)c(OC)c3O)C[C@@H]([C@@H]1O)N2C)OCO4 ... 9.14
COc1c(C)cc2c(c1O)[C@@H]1[C@@H]3[C@@H]4SC[C@]5(N[C@H](CO)Cc6c5oc5ccccc65)C(=O)OC[C@@H](c5c6c(c(C)c(OC(C)=O)c54)OCO6)N3[C@@H](O)[C@H](C2)N1C ... 8.73
COc1c(C)cc2c(c1O)[C@@H]1[C@@H]3[C@@H]4SC[C@]5(N[C@H](CO)Cc6c5[nH]c5ccccc65)C(=O)OC[C@@H](c5c6c(c(C)c(OC(C)=O)c54)OCO6)N3[C@@H](O)[C@H](C2)N1C ... 8.85

====

System: IGR37
Assay: Cell viability assay (PrestoBlue), 72h, last line of Table 2
Conditions: Homo sapiens, IGR-37, 72 h
Measured IC50 by item
measure: IC50

CC(C)(C)c1nc(-c2cccc(NS(=O)(=O)c3c(F)cccc3F)c2F)c(-c2ccnc(N)n2)s1 ... > 50 nM
CCCS(=O)(=O)Nc1ccc(F)c(C(=O)c2c[nH]c3ncc(-c4ccc(Cl)cc4)cc23)c1F ... > 10000 nM
CC(=O)Nc1cccc(-n2c(=O)n(C3CC3)c(=O)c3c(Nc4ccc(I)cc4F)n(C)c(=O)c(C)c32)c1 ... > 50 nM

====

Test system: MM029
Assay: Cell viability assay (PrestoBlue), 72h
Details: Homo sapiens
Items are presented alongside their recorded IC50.
measure: IC50

CC(=O)Nc1cccc(-n2c(=O)n(C3CC3)c(=O)c3c(Nc4ccc(I)cc4F)n(C)c(=O)c(C)c32)c1 [trametinib] ... > 50 nM
CCCS(=O)(=O)Nc1ccc(F)c(C(=O)c2c[nH]c3ncc(-c4ccc(Cl)cc4)cc23)c1F [vemurafenib] ... > 10000 nM
CC(C)(C)c1nc(-c2cccc(NS(=O)(=O)c3c(F)cccc3F)c2F)c(-c2ccnc(N)n2)s1 [dabrafenib] ... > 50 nM

====

Test system: MM099
Assay: Cell viability assay (PrestoBlue), 72h
Details: Homo sapiens
pIC50: −log10 of the molar value.
measure: pIC50

CCCS(=O)(=O)Nc1ccc(F)c(C(=O)c2c[nH]c3ncc(-c4ccc(Cl)cc4)cc23)c1F ... < 5.00
CC(=O)Nc1cccc(-n2c(=O)n(C3CC3)c(=O)c3c(Nc4ccc(I)cc4F)n(C)c(=O)c(C)c32)c1 ... < 7.30
CC(C)(C)c1nc(-c2cccc(NS(=O)(=O)c3c(F)cccc3F)c2F)c(-c2ccnc(N)n2)s1 ... < 7.30

Data origin: patent EP4563149A1
